- tested target: Ephrin type-A receptor 3 (Homo sapiens) (UniProt P29320);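 note: values are mean inhibition of EPHA3, from the GSK PKIS dataset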
- Sequence (P29320 whole entry): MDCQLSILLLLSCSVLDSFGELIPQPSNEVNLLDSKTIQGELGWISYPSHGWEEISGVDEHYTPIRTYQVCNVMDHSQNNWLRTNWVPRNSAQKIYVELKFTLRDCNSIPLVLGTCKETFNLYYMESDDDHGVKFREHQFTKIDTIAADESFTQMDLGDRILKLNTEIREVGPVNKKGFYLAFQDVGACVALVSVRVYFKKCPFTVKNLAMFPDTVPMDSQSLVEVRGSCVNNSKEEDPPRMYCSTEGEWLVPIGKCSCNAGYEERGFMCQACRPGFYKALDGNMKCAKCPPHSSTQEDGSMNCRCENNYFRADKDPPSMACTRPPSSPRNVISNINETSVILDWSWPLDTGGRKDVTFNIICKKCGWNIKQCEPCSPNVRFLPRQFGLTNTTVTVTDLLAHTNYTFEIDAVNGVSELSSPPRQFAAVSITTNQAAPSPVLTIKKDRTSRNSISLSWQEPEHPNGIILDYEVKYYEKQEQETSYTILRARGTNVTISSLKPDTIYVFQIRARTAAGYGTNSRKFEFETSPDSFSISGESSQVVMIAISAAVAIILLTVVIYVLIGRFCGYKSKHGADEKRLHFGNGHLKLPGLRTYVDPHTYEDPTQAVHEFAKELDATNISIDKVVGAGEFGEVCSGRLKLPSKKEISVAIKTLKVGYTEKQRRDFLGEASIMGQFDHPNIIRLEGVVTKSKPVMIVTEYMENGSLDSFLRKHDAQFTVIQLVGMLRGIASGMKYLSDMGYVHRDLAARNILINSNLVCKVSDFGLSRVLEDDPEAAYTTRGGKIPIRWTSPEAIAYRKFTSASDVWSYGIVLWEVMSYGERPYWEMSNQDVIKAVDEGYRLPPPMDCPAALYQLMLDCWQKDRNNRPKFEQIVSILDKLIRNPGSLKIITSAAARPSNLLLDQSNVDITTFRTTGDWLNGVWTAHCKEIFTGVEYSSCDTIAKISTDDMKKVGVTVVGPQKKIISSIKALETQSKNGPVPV
- measurement conditions: at 0.1 µM
readout: inhibition (%)
Numbers only, in %.

Known results for compounds:
INSERT INTO measurements (cpd_smiles, readout, readout_unit, result_value) VALUES
  ('CNC(=O)c1cncc(/C=C/c2c(C)cccc2C)c1', 'inhibition', '%', 2.95),
  ('Fc1ccc(-c2ncn(C3CCNCC3)c2-c2ccnc(Oc3ccc4c(c3)OCO4)n2)cc1', 'inhibition', '%', 3.63),
  ('C[C@@H](Oc1cc(-n2cnc3ccc(OCC4CCN(C)CC4)cc32)sc1C(N)=O)c1ccccc1Cl', 'inhibition', '%', 3.99),
  ('NS(=O)(=O)c1ccc(N/N=C2\C(=O)Nc3ccc(-c4cnco4)cc32)cc1', 'inhibition', '%', -2.34);

Dear colleague, could you please provide inhibition for the compounds listed below?
1. O=C(Nc1n[nH]c2nc(-c3ccc(O)cc3)c(Br)cc12)C1CC1
2. O=C(NCC1CC1)c1ccc(-c2cccc(C(=O)NC3CC3)c2)cc1

1: 8.45; 2: 2.75

Dear colleague, could you please provide inhibition for the compounds listed below?
1. COc1cc2ncn(-c3cc(OCc4ccccc4C(F)(F)F)c(C(C)=O)s3)c2cc1OC
2. O=C(Nc1n[nH]c2nc(-c3ccco3)ccc12)C1CC1
3. Cc1ccc(C(=O)NC(C)C)cc1-c1ccc(C(=O)NCC2CC2)cc1
4. CN(c1ccc(NC(=O)Nc2c(Cl)cccc2Cl)cc1)c1ccnc(Nc2cccc(CS(C)(=O)=O)c2)n1

[1.78, 1.58, -7.27, 7.33]

---

- tested target: Mitogen-activated protein kinase 12 (Homo sapiens) (UniProt P53778)
- Sequence (P53778 whole entry): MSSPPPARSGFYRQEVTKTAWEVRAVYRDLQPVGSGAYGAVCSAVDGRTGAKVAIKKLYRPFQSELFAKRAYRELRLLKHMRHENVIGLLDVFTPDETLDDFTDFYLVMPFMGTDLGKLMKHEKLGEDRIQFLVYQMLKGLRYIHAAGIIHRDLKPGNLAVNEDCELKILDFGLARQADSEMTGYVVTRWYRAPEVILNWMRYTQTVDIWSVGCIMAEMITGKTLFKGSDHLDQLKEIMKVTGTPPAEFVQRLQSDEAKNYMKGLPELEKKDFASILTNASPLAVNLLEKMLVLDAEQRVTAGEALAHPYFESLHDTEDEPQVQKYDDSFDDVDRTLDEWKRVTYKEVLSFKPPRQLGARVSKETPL
- measurement conditions: at 0.1 µM
- Description: GSK_PKIS: P38gamma mean inhibition at 0.1 uM [Nanosyn]
Provide the recorded inhibition for the entries that follow.
Reply with the number and its unit after it.

INSERT INTO measurements (cpd_smiles, readout, result_value) VALUES
  ('C[C@@H](Oc1cc(-n2cnc3ccc(OCC4CCN(C)CC4)cc32)sc1C(N)=O)c1ccccc1Cl', 'inhibition', '3.48%');

Dear colleague, could you please provide inhibition for the compounds listed below?
1. Cc1nnc(-c2ccc(C)c(-c3ccc(C(=O)NCc4ccc(Cl)cc4)cc3)c2)o1
2. CCN(CC)Cc1ccc(Nc2nccc(-c3cnn4ncccc34)n2)cc1
3. C#Cc1cccc(Nc2ncnc3ccc(OCCCCNCCS(C)(=O)=O)cc23)c1

1.42%
3.65%
1.66%

Param readout = inhibition; param system = Mitogen-activated protein kinase 12 (Homo sapiens) (UniProt P53778); param query = `O=C(NCC1CC1)c1ccc(-c2cccc(C(=O)NC3CC3)c2)cc1` ; response: value 4.08%

---

Provide the recorded inhibition for the entries that follow.
- tested target: Mitogen-activated protein kinase 12 (Homo sapiens)
- measurement conditions: at 1 µM
Give bare numbers, in %.

Known results for molecules:
INSERT INTO results (cpd_smiles, readout, result_value) VALUES
  ('C[C@@H](Oc1cc(-n2cnc3ccc(OC4CCN(C)CC4)cc32)sc1C(N)=O)c1ccccc1Cl', 'inhibition', 5.86),
  ('O=C1Nc2ccc(I)cc2C1=Cc1cc(Br)c(O)c(Br)c1', 'inhibition', 6.31),
  ('NS(=O)(=O)c1ccc(Nc2cc(-c3ccc(O)c(F)c3)n[nH]2)cc1', 'inhibition', -2.2),
  ('COC(=O)Nc1nc2ccc(Sc3ccc(NC(=O)Nc4cc(C(F)(F)F)ccc4F)cc3)cc2[nH]1', 'inhibition', 2.22),
  ('COc1cc(Nc2ncc3c(C)nc(-c4cccc(Oc5ccccc5)c4)n3n2)cc(OC)c1OC', 'inhibition', 0.85);

Dear colleague, could you please provide inhibition for the molecules listed below?
1. COc1ccc(-c2ccc3c(NC(=O)C4CC4)n[nH]c3n2)cc1
2. Cc1nnc(-c2ccc(C)c(-c3ccc(C(=O)NCc4ccc(Cl)cc4)cc3)c2)o1
3. C#Cc1cccc(Nc2ncnc3ccc(OCCCCNCCS(C)(=O)=O)cc23)c1
4. Fc1ccc(-c2ncn(CCCN3CCOCC3)c2-c2ccncc2)cc1

1: 0.89; 2: 3.42; 3: 3.54; 4: 0.4

Cited source for all entries: ChEMBL document CHEMBL1961873
